- System: pigweed (Amaranthus retroflexus)
- assayInfo: Test B pre-/postemergence plant response
- Assay type: in vivo
- setupConditions: Postemergence, 62 g ai/ha; scale 0 to 100 (0 no effect, 100 complete control)
- From the text: […] Treated plants and controls were maintained in a greenhouse for 13 to 15 days, after which time all treated plants were visually evaluated and compared to controls. […]
propertyName: Plant response rating, Pigweed
Numbers only.

Below, 4 molecules whose answers are already recorded.
COCCCn1c(-c2cccc(F)c2)ncc(C(=O)C2=C(O)C3CCC(C3)C2=O)c1=O (centres unmarked)    100
CCCn1c(-c2ccsc2)ncc(C(=O)C2=C(O)C3CCC(C3)C2=O)c1=O (centres unmarked)    90
COCCn1c(-c2cccc(C)c2)ncc(C(=O)C2=C(O)C3CCC(C3)C2=O)c1=O (centres unmarked)    98
Cc1cc(-n2c(-c3cccc(F)c3)ncc(C(=O)C3=C(O)CCCC3=O)c2=O)ccc1F    85

Data request: Which measured Plant response rating, Pigweed value corresponds to COCCn1c(-c2cccc(F)c2)ncc(C(=O)C2=C(O)C3CCC(C3)C2=O)c1=O (centres unmarked) ?
Data returned: 100
